- Assay system: LuxR (Aliivibrio fischeri, UniProt P12746)
- Construct: expressed in E. coli DH5alpha receiver cells; GFP reporter under the Plux* promoter
- Sequence (P12746 whole entry): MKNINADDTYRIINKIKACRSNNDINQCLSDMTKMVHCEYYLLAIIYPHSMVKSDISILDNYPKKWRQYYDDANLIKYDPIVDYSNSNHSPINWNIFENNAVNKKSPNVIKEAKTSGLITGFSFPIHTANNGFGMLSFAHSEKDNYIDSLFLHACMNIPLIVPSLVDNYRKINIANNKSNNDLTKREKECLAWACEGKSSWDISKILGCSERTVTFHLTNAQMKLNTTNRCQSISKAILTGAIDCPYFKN
- Protocol: cell-based
- Set-up: species or system Escherichia coli DH5alpha; E. coli receiver cells, GFP reporter under aTF-responsive promoter, flow cytometry, dose-response with pure synthetic signal molecules
- Condition set: Synthetic [column C], synthetic pure signal, replicate
Observed property: EC50 (nM)
Give the number; nM is assumed, so skip it.

Q: // returns reported EC50 for input CCCC(=O)CC(=O)N[C@H]1CCOC1=O
A: 32.9

###

- Assay system: FdeR (Herbaspirillum seropedicae, UniProt D8J0W4)
- Construct: gene nodD; expressed in E. coli DH5alpha receiver cells; GFP reporter under the cognate promoter
- Sequence (D8J0W4 1-309): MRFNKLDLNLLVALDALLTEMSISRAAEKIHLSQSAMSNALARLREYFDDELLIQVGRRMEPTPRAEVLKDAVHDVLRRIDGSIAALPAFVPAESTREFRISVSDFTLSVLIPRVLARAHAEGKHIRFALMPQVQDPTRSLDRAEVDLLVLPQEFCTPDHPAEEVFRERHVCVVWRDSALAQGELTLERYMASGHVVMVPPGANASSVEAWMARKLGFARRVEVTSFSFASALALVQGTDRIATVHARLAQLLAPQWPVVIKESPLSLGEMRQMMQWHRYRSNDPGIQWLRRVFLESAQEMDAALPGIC
- Protocol: cell-based
- Parameters: species or system Escherichia coli DH5alpha; E. coli receiver cells, GFP reporter under aTF-responsive promoter, flow cytometry, dose-response with pure synthetic signal molecules
- Condition set: Synthetic [column C], synthetic pure signal, replicate
Observed property: EC50 (µM)
Give the number; µM is assumed, so skip it.

Q: For the record O=C1C[C@@H](c2ccc(O)cc2)Oc2cc(O)cc(O)c21 , what value of EC50 is listed for FdeR (Herbaspirillum seropedicae, UniProt D8J0W4)?
A: 93.8

###

- Assay system: PhlF (Pseudomonas protegens)
- Construct: expressed in E. coli DH5alpha receiver cells; PphlF-sfGFP reporter
- Protocol: cell-based
- Set-up: species or system Escherichia coli DH5alpha; E. coli receiver cells, GFP reporter under aTF-responsive promoter, flow cytometry, dose-response with pure synthetic signal molecules
- Condition set: Synthetic [column C], synthetic pure signal, replicate
Observed property: pEC50
pEC50 is defined as minus the log10 of a concentration measured in mol/L.

Q: // returns reported pEC50 for input CC(=O)c1c(O)cc(O)c(C(C)=O)c1O
A: 4.75

###

- Assay system: PhlF (Pseudomonas protegens, UniProt Q4K422)
- Construct: expressed in E. coli DH5alpha receiver cells; PphlF-sfGFP reporter
- Sequence (Q4K422 1-200): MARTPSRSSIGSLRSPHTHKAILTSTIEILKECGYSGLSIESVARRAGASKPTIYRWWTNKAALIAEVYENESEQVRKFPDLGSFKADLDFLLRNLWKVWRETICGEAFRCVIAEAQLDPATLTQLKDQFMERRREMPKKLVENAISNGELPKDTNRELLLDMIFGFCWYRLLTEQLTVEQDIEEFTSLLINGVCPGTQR
- Protocol: cell-based
- Design: species or system Escherichia coli DH5alpha; E. coli receiver cells, GFP reporter under aTF-responsive promoter, flow cytometry, dose-response with pure synthetic signal molecules
- Condition set: Synthetic [column D], synthetic pure signal, replicate
Observed property: EC50 (µM)
Give the number; µM is assumed, so skip it.

Q: // returns reported EC50 for input CC(=O)c1c(O)cc(O)c(C(C)=O)c1O
A: 16.3

###

- Assay system: LuxR (Aliivibrio fischeri)
- Construct: expressed in E. coli DH5alpha receiver cells; GFP reporter under the Plux* promoter
- Protocol: cell-based
- Parameters: species or system Escherichia coli DH5alpha; E. coli receiver cells, GFP reporter under aTF-responsive promoter, flow cytometry, dose-response with pure synthetic signal molecules
- Condition set: Synthetic [column D], synthetic pure signal, replicate
Observed property: pEC50
pEC50 is defined as minus the log10 of a concentration measured in mol/L.

Q: // returns reported pEC50 for input CCCC(=O)CC(=O)N[C@H]1CCOC1=O [3OC6, 3-oxo-C6-HSL]
A: 7.83

###

- Assay system: PhlF (Pseudomonas protegens, UniProt Q4K422)
- Construct: expressed in E. coli DH5alpha receiver cells; PphlF-sfGFP reporter
- Protocol: cell-based
- Set-up: species or system Escherichia coli DH5alpha; E. coli receiver cells, GFP reporter under aTF-responsive promoter, flow cytometry, dose-response with pure synthetic signal molecules
- Condition set: Synthetic [column B], synthetic pure signal, replicate
Observed property: EC50 (µM)
Give the number; µM is assumed, so skip it.

Q: // returns reported EC50 for input CC(=O)c1c(O)cc(O)c(C(C)=O)c1O
A: 18.2
